target: DNAPK (Homo sapiens (Human), UniProt P78527); assay: DNAPK cellular potency assay (DNA-PK cell), pS2056-DNAPK ELISA in irradiated A549 cells; type: cell-based; conditions: 8 Gy radiation, arithmetic mean of two or more experiments, read-out: DNA-PK cell pIC50 (converted)
The label TRUE is reserved for IC50 strictly under 20 nM; FALSE covers values equal to or above it.

{"columns": ["SMILES STRING", "CLASSIFICATION"],
 "data": [
  ["Cc1cc2nnccc2cc1Nc1ncc2c(n1)n([C@H]1CCOC1)c(=O)n2C", "TRUE"],
  ["Cc1cc2nnccc2cc1Nc1ncc2c(n1)n([C@H]1CC[C@@](C)(O)CC1)c(=O)n2C", "TRUE"],
  ["Cc1cc2ncccc2cc1Nc1ncc2c(n1)n(C1CCS(=O)(=O)CC1)c(=O)n2C", "FALSE"],
  ["Cc1cc2ncccc2cc1Nc1ncc2c(n1)n(C1CCN(C3COC3)CC1)c(=O)n2C", "FALSE"],
  ["Cc1cc2nnccc2cc1Nc1ncc2c(n1)n([C@H]1CC[C@H](O)CC1)c(=O)n2C", "FALSE"],
  ["Cc1cc2nnccc2cc1Nc1ncc2c(n1)n([C@H]1CCCOC1)c(=O)n2C", "TRUE"]
]}
